// reported DL 50 I.V. for each item listed
method: Acute toxicity, lethal dose 50 after oral and intravenous administration
Format: in vivo, souris
condition_set: mouse, intravenous administration
Write the answer as a number in mg/kg⁻¹, unit excluded.

Known DL 50 I.V. results, listed for orientation:
1. Cc1ccc(C(C)C)c(OCCN2CCCC2)c1.Cl; 75
2. Cc1cc(OCCN2CCCC2)c(C(C)C)cc1O.Cl; 17

# ---- query molecule ----
Answer with the recorded DL 50 I.V. for the molecule listed here: CC(=O)Oc1cc(C(C)C)c(OCCN2CCCC2)cc1C.Cl
18

----------
// reported DL 50 P.O. for each item listed
method: Acute toxicity, lethal dose 50 after oral and intravenous administration
Type: in vivo, souris
condition_set: mouse, oral administration

Known DL 50 P.O. results, listed for orientation:
1) Cc1ccc(C(C)C)c(OCCN2CCCC2)c1.Cl; 330 mg/kg⁻¹
2) CC(=O)Oc1cc(C(C)C)c(OCCN2CCCC2)cc1C.Cl; 100 mg/kg⁻¹
3) Cc1cc(OCCN2CCCC2)c(C(C)C)cc1O.Cl; 80 mg/kg⁻¹

# ---- query compound ----
Answer with the recorded DL 50 P.O. for the compound listed here: CC(=O)Oc1cc(C(C)C)c(OCCN(C)C)cc1C [Thymoxamine, reference compound]
300 mg/kg⁻¹

----------
Tested on: pressions artérielle et urétrale
method: In vivo α-blocking activity at urethral and vascular level: noradrenaline-induced rise of arterial and urethral pressure in the anaesthetised rabbit
Set-up: species or system lapin
condition_set: product i.v.
assay_endpoint: D.I. 50 vis-à-vis de l'hypertension artérielle

Known D.I. 50 vis-à-vis de l'hypertension artérielle results, listed for orientation:
1. CC(=O)Oc1cc(C(C)C)c(OCCN2CCCC2)cc1C.Cl [B 1024]; 4,14 mg/kg⁻¹
2. Cc1cc(OCCN2CCCC2)c(C(C)C)cc1O.Cl [B 1058]; 1,22 mg/kg⁻¹
3. Cc1ccc(C(C)C)c(OCCN2CCCC2)c1.Cl [B 1007]; 7,63 mg/kg⁻¹

# ---- query molecule ----
Answer with the recorded D.I. 50 vis-à-vis de l'hypertension artérielle for the molecule listed here: CC(=O)Oc1cc(C(C)C)c(OCCN(C)C)cc1C [Thymoxamine, reference compound]
2,72 mg/kg⁻¹

----------
Tested on: canal déférent isolé du rat
method: In vitro α-adrenolytic activity: antagonism of noradrenaline contractions of isolated rat vas deferens
Assay type: cell-based
assay_endpoint: Action α-bloquante vis-à-vis de la noradrénaline sur canal déférent isolé pA₂

1) CC(=O)Oc1cc(C(C)C)c(OCCN2CCCC2)cc1C.Cl; 6,98
2) Cc1ccc(C(C)C)c(OCCN2CCCC2)c1.Cl; 6,74
3) Cc1cc(OCCN2CCCC2)c(C(C)C)cc1O.Cl; 7,18
4) CCCC(=O)Oc1cc(C(C)C)c(OCCN2CCCC2)cc1C.Cl; 7,35

# ---- query compound ----
Answer with the recorded Action α-bloquante vis-à-vis de la noradrénaline sur canal déférent isolé pA₂ for the compound listed here: CC(=O)Oc1cc(C(C)C)c(OCCN(C)C)cc1C [Thymoxamine, reference compound]
7,25

----------
// reported Action α-bloquante vis-à-vis de la noradrénaline sur urètre isolé pD'₂ for each item listed
Tested on: urètre isolé du lapin
method: In vitro α-adrenolytic activity: antagonism of noradrenaline contractions of isolated rabbit urethra
Assay type: cell-based

Known Action α-bloquante vis-à-vis de la noradrénaline sur urètre isolé pD'₂ results, listed for orientation:
1. CC(=O)Oc1cc(C(C)C)c(OCCN(C)C)cc1C [Thymoxamine, reference compound]; 7,03
2. CC(=O)Oc1cc(C(C)C)c(OCCN2CCCC2)cc1C.Cl [B 1024]; 6,38
3. CCCC(=O)Oc1cc(C(C)C)c(OCCN2CCCC2)cc1C.Cl [B 1132]; 6,0
4. Cc1cc(OCCN2CCCC2)c(C(C)C)cc1O.Cl [B 1058]; 6,69

# ---- query compound ----
Param request: Action α-bloquante vis-à-vis de la noradrénaline sur urètre isolé pD'₂ | system urètre isolé du lapin | item Cc1ccc(C(C)C)c(OCCN2CCCC2)c1.Cl [B 1007]
6,88
